Measured shrunken log2 fold change values are reported for all entries that follow.
System: Escherichia coli TOP10;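 note: peptides expressed intracellularly from a pBAD plasmid library in pooled LB shake-flask culture, induced with 0.3% L-arabinose, DNA abundance read by NGS, three biological replicates, DESeq2 with apeglm shrinkage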
Test: shrunken log2 fold change of peptide-encoding DNA abundance (4.5 h post-induction vs induction); higher = less antimicrobial activity (less host growth inhibition)
Conditions: time post-induction: 4.5 h; library: site-saturation at positions 5, 18, 19, 20
measured.parameter: shrunken log2 fold change

{"sequence.content": "RRIRWRPPRLPRPRPRPWSTPRP", "data.value": 0.374}
{"sequence.content": "RRIRERPPRLPRPRPRPMVLPRP", "data.value": 0.104}
{"sequence.content": "RRIRKRPPRLPRPRPRPQLLPRP", "data.value": 0.261}
{"sequence.content": "RRIRWRPPRLPRPRPRPFIAPRP", "data.value": -0.291}
{"sequence.content": "RRIRFRPPRLPRPRPRPHGYPRP", "data.value": -0.707}
{"sequence.content": "RRIRPRPPRLPRPRPRPLEPPRP", "data.value": 0.0434}
{"sequence.content": "RRIRLRPPRLPRPRPRPDKEPRP", "data.value": 0.0143}
{"sequence.content": "RRIRFRPPRLPRPRPRPESNPRP", "data.value": 0.224}
{"sequence.content": "RRIRLRPPRLPRPRPRPILRPRP", "data.value": -0.156}
{"sequence.content": "RRIRTRPPRLPRPRPRPICSPRP", "data.value": -0.0969}
{"sequence.content": "RRIRERPPRLPRPRPRPKDTPRP", "data.value": -0.115}
{"sequence.content": "RRIRARPPRLPRPRPRPWPHPRP", "data.value": -0.0357}
{"sequence.content": "RRIRTRPPRLPRPRPRPGDQPRP", "data.value": -0.0663}
{"sequence.content": "RRIRFRPPRLPRPRPRPNNWPRP", "data.value": -0.369}
{"sequence.content": "RRIRFRPPRLPRPRPRPTAYPRP", "data.value": -0.243}
{"sequence.content": "RRIRGRPPRLPRPRPRPTIVPRP", "data.value": 0.779}
{"sequence.content": "RRIRQRPPRLPRPRPRPSPRPRP", "data.value": 0.31}
{"sequence.content": "RRIRWRPPRLPRPRPRPLPVPRP", "data.value": -0.0992}
{"sequence.content": "RRIRRRPPRLPRPRPRPHQMPRP", "data.value": 0.19}
{"sequence.content": "RRIRDRPPRLPRPRPRPAKRPRP", "data.value": -0.161}
{"sequence.content": "RRIRMRPPRLPRPRPRPFRYPRP", "data.value": 0.0191}
{"sequence.content": "RRIRERPPRLPRPRPRPIQLPRP", "data.value": -0.446}
{"sequence.content": "RRIRKRPPRLPRPRPRPCGNPRP", "data.value": 0.0169}
{"sequence.content": "RRIRCRPPRLPRPRPRPVHQPRP", "data.value": 0.11}
{"sequence.content": "RRIRFRPPRLPRPRPRPKMSPRP", "data.value": -0.369}
{"sequence.content": "RRIRARPPRLPRPRPRPMSPPRP", "data.value": 0.342}
{"sequence.content": "RRIRCRPPRLPRPRPRPRESPRP", "data.value": 0.155}
{"sequence.content": "RRIRDRPPRLPRPRPRPDSHPRP", "data.value": 0.0162}
{"sequence.content": "RRIRERPPRLPRPRPRPSWTPRP", "data.value": -0.833}
{"sequence.content": "RRIRFRPPRLPRPRPRPTDSPRP", "data.value": -0.0233}
{"sequence.content": "RRIRFRPPRLPRPRPRPWPPPRP", "data.value": 1.11}
{"sequence.content": "RRIRARPPRLPRPRPRPQHGPRP", "data.value": -0.265}
